tested on: MS2 coat protein; assay: apparent KD of MS2 coat protein; higher = weaker reporter binding; settings: Eterna round: R107; input ligand: none
Quick reference for apparent KD of MS2 coat protein among some sequences
Just the number please, in nM, no unit attached.

Reference set (3 entries):
• UUGCAGAUCGGAAAGGUCCUGCUGUUCGAAGGAGCGGUAAAAGUACCAGGUAGGUCGCGAACAUGAGGAUCACCCAUGUUUGCAA [Usmaenbi] = 22.3
• AUCCACAGCCGAAGGAGCGCAGUAGGAUGACAUGAGGAUCACCCAUGUGUGUGAUGUGGAUUGCAGGUAGGUCGCGGAGUGGGUU [Exclusion - Arginine B (Freestyle 8)] = 71.7
• AAAUAAAUACAUGAGGAUCACCCAUGUGAAGGAGCGCGCGUUAGCGCAGGUAGGUCGCACAUGAAUAACUCCGCGCGAAAGCGCA [MAT - Exclusion Arginine A - Mod of Eli - D11] = 17.4

# get_value(readout='apparent KD of MS2 coat protein', item= "AGCAGCUGGUUUCUUUUCUUUACAGCUGCACGAGGACCGGUACGGCCGCCACUCGAGGACAUGAGGAUCACCCAUGUGCCGGUCG" ) 25.6

# get_value(readout='apparent KD of MS2 coat protein', item= "UGUAUGGACUGAAGGAGCGGGAAAAUAACUUGAGGAUCACCCAGGUAAAAGGCGAAAGCCACCCAGGUAGGUCGCAGUCCAUACU" ) 26.2

# get_value(readout='apparent KD of MS2 coat protein', item= CACAUGAGGAUCACCCAUGUGUAAUAUGAAGGAGCGUCGGAAAUGACAGGUAGGUCGCAUGAAAUGCAAGUGUGUGAGGUUGUGA [EAA NP+V+V2 #12] ) 10

----------
test system: MS2 coat protein; test: apparent KD of MS2 coat protein; designed switch direction (-1 OFF switch, 1 ON switch): -1; higher = weaker reporter binding; conditions: input ligand: FMN 200 uM
Quick reference for apparent KD of MS2 coat protein among some sequences
Just the number please, in nM, no unit attached.

Reference set (4 entries):
- ACAGUUUUGCAAGGAUAUCGUUUUAGUUUAUUACGAGAAGGUGCUUUAGUUAUUUCUUUGGGUUGACAUGAGGAUCACCCAUGU [JR_ExcNG1_Sub057] (Eterna round: R96, puzzle: Exclusion NG 1): 136
- UAUGGUAAAGUCAGGAUAUACGUGCAGAAUUCUAGGUAGAAGGGACAUGAGGAUCACCCAUGUAUGGUAGUGUU [Ex4 #44] (Eterna round: R97, puzzle: Brourd's mod of Exclusion 4): 146
- ACUUAUAGAGGAUAUACAGAUUAUUACAUGAGGAUCACCCAUGUUCUUCAAUGUAUAUAUGUAGAAGGCUAAGGAU [Mat - Exclusion 5 - JL Mod - D8] (Eterna round: R97, puzzle: Exclusion 5): 192
- CUCGUGCAGCAAAGCUGUACGAGUACAUGAGGAUCACCCAUGUAGGAUAUGGUACGCUUUGCGUGCUAGAAGGAUAUGUGUAGG [Mat - Exclusion NG 3 - Mod of JL - D86] (Eterna round: R96, puzzle: Exclusion NG 3): 37.5

Now consider the entry below.
# get_value(readout='apparent KD of MS2 coat protein', item= CCACGACAUGAGGAUCACCCAUGUGAGGAUAUGGCCUGAAAAGCGUGAGCAGUUUCAAUCAGAAGGCGCGUGGG [salish99_ex1_r4_062] (Eterna round: R97, puzzle: Exclusion 1) ) 162

----------
tested on: MS2 coat protein; test: apparent KD of MS2 coat protein; higher = weaker reporter binding; details: Eterna round: R107; input ligand: arginine 13.2 mM
value kind: apparent KD of MS2 coat protein (nM)
Just the number please, in nM, no unit attached.

- UUUACAUGAGGAUCACCCAUGUGCCAUGAUACCAGACAUGAAAAUGUCCCUUGGCAGCAUGAGUGAUAUGCGUCGGAAACGACGC [Jundrov]: 499

# get_value(readout='apparent KD of MS2 coat protein', item= UCGCUCUGGGUGAGAUCCGGAGAUAUGGAAGGAGCGCUGAUGCCAGCAGGUAGGUCGCCAACGGACAUGAGGAUCACCCAUGUAC [Same State - Arginine A (Freestyle 10)] ) 25

----------
test system: MS2 coat protein; experiment: apparent KD of MS2 coat protein; designed switch direction (-1 OFF switch, 1 ON switch): -1; higher = weaker reporter binding; settings: Eterna round: R95; input ligand: FMN 200 uM
Each record's class is read off its apparent KD of MS2 coat protein using these ranges: bottom range = under 30 nM, center range = from 30 nM up to 200 nM, top range = 200 nM and over

Field: class (apparent KD of MS2 coat protein) — entry: UAGAAGGUAGGAUAUACGAAUAAAUAGGGUAGUAAGAAGACACAUGAGGAUCACCCAUGUAGAAGGACCAAGAU [Mat - Exclusion 2 - Mod of my Tesla design - D33] (puzzle: Exclusion 2) center range

----------
tested on: MS2 coat protein; test: apparent KD of MS2 coat protein; designed switch direction (-1 OFF switch, 1 ON switch): 1; higher = weaker reporter binding; conditions: Eterna round: R95; input ligand: none
value kind: apparent KD of MS2 coat protein (nM)
Just the number please, in nM, no unit attached.

• GGUCCAGCCUGAGCUGGACAAGAGCAUGUACAUGAGGAUCACCCAUGUCAUGUACAAGCUUUUUGCUCGUCUUAAAA [JL mod - D87 - 2] (puzzle: Sensor for hsa-mir-208a) = 540
• AGUCCAGCGAAAGCUGGACAAAAGCAUGUACAUGAGGAUCACCCAUGUUCAUGUGCAAGCUUUUUGCUCGUCUUAAA [JL mod - D95 - 4] (puzzle: Sensor for hsa-mir-208a) = 58.9

Now consider the entry below.
# get_value(readout='apparent KD of MS2 coat protein', item= AAAGUACAUGAGGAUCACCCAUGUCCAAAGAAGUAAGGAUAUACGGAAAGAAAAGAAAAUGUAGAAGGUACAAGAA [Same State 1 #3] (puzzle: Same State 1) ) 57.6

----------
Quick reference for apparent KD of MS2 coat protein among some sequences
test system: MS2 coat protein; test: apparent KD of MS2 coat protein; designed switch direction (-1 OFF switch, 1 ON switch): -1; higher = weaker reporter binding; settings: Eterna round: R95; input ligand: microRNA oligo, concentration not stated
Just the number please, in nM, no unit attached.

• CCAUGUUAGCAGGAUAUGCAAUAAAUCUUUUAAGCAGAAGGGCUUACAUGAGGAUCACCCAUGUAUAAAGUCAA [JR_E6_Sub079] (puzzle: Exclusion 6) = 19.9
• CCAGCGAGUGUGAGGAUAUGCUGGUCCUUGGAUCAGCAGAAGGCACAUGAGGAUCACCCAUGUGAAAACGUUGG [JL bmx4 3.30] (puzzle: Brourd's mod of Exclusion 4) = 21.8

# get_value(readout='apparent KD of MS2 coat protein', item= GCGCAGGUAGGAUAUCGAGCUAAGAACAUGAGGAUCACCCAUGUGUUCGGUAGCCAACUUCGAGAAGGACCAAAUA [Ceati] (puzzle: Exclusion 5) ) 11.4

----------
Quick reference for apparent KD of MS2 coat protein among some sequences
tested on: MS2 coat protein; test: apparent KD of MS2 coat protein; higher = weaker reporter binding; conditions: Eterna round: R107; input ligand: arginine 13.2 mM
Just the number please, in nM, no unit attached.

# get_value(readout='apparent KD of MS2 coat protein', item= GUCGCUGAGGGAAGGAGCGUGAAGACAUGAGGAUCACCCAUGUAGAGGCGCCGAAGGCGUUCGCAGGUAGGUCGCCCUCAGUGAC [#1 Same State - Arginine B Attempt #22 (HarryS)] ) 42.4

# get_value(readout='apparent KD of MS2 coat protein', item= AGAUUACAUGUUAUAAUACGGUAUACUGAUACCAGUGUUUCUAUUCACCCUUGGCAGCAGCAACAUGAGGAUCACCCAUGUAUUA [JR_SSTheophyA_Sub017] ) 14.9

# get_value(readout='apparent KD of MS2 coat protein', item= ACGUAAUGCGGAAGGAGCGUCAUUUUAAAACAUGAGGAUCACCCAUGUAAUAUUUUUGUGUGACAGGUAGGUCGCCGAAGUACGA [#07 Same State - Arginine B] ) 14.4

# get_value(readout='apparent KD of MS2 coat protein', item= AAUGUAAUAGUCGUACUCUUACACUGAGAAGGAGCGCGAAAGUUCGCAGGUAGGUCGCUCAGUUAUACAUGAGGAUCACCCAUGU [Bebemaata] ) 24.1

# get_value(readout='apparent KD of MS2 coat protein', item= AAUGCUGCCAAGGAUUCCUCAUGAGCAGAUACCAGCUAGGAAACUAGCCCUUGGCAGCUGCAACAUGAGGAUCACCCAUGUAAUA [(T)'-(M)'-(T1)-(T2)-(M1)-(M2)_Design7] ) 31

# get_value(readout='apparent KD of MS2 coat protein', item= "UGUAUGUGAUCUGAUACCAGUCCAACUGGUAAACCAUGAGGAUCACCCAUGGAAAAUUGGGACCCUUGGCAGCAGAUCGCAUACU" ) 96.5

# get_value(readout='apparent KD of MS2 coat protein', item= UUCGUAUUGUCGGCCGCCACUGCAACAUGAGGAUCACCCAUGUAAAUUUGGGAGUAGUUAUAUUACAGGACCGGGACAAUAGUAA [JR_ExcTryptoB_Sub019] ) 51.8

# get_value(readout='apparent KD of MS2 coat protein', item= GCACAAGAUGGAAGGAGCGCUGGUAAAGGUCACAUGAGGAUCACCCAUGUGCUCCUUGCCGAGCAGGUAGGUCGCCAUCUUGUGC [SSAB NP+V+V2 #3] ) 14.1

# get_value(readout='apparent KD of MS2 coat protein', item= UAACAUGAGGAUCACCCAUGUAAACUAAGUCGAGGACCGGUACGGCCGCCACUCGAAAUUGAAGAAUUGGCGGAAAAUGUAUGUU [JR_ExcTryptoA_Sub018] ) 12

# get_value(readout='apparent KD of MS2 coat protein', item= UGGAAAGCACAUGAGGAUCACCCAUGUGAUACCAGCUGAAACUAAGGCCCUUGGCAGCACAUGGUACCAACCCUUUGGUAGUCCA [Vearedqu] ) 10.9

# get_value(readout='apparent KD of MS2 coat protein', item= ACAUUGCGCUCGGCCGCCACUGGCUUAUGAUUAUAAGCAUUAAUGAACAUGAGGAUCACCCAUGUCAGGACCGGGAGCGAACCAU [SSTryp B #7] ) 13.6

# get_value(readout='apparent KD of MS2 coat protein', item= AAUGCCGGAUCGGCCGCCACUGGUUGGCUCUGUGUACAUGAGGAUCACCCAUGUCCAUCCCAAACCAGGACCGGGAUCUUUGUGU [Veonmale] ) 14.6

src = the supplement of paper PMC9170038
